Target: p38 kinase (Homo sapiens, UniProt Q16539)
Construct: GST (N); made in house; host or cells: E. coli
Sequence (Q16539 whole entry): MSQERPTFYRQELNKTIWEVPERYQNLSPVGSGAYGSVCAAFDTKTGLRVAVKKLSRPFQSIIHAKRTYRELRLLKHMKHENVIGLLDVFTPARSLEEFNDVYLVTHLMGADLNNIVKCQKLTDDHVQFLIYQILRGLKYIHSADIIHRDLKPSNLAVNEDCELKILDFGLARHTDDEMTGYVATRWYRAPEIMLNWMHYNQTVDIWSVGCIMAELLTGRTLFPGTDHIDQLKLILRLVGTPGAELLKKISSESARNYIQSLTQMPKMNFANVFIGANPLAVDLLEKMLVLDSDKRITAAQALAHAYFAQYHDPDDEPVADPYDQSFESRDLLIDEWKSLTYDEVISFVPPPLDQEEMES
Assay: p38 Kinase Assay
Type: biochemical
Settings: Table 8, compounds wherein Z is N; read-out: p38 kinase (inhibition of p38 kinase, IC50)
Excerpt: The peptide substrate used in the p38 assay was biotin-IPTSPITTTYFFFRRR-amide. The p38 and MEK6 proteins were purified to homogeneity from E. coli expression systems. The fusion proteins were tagged at the N-terminus with Glutathione-S-Transferase (GST). […] The plates were counted in a Packard TopCount for 60 seconds. […]

- line-notation: "Cc1ccc(C)c(Oc2nccc(-c3c(-c4ccc(F)cc4)nn4cc(C(F)(F)F)ccc34)n2)c1"
  IC50: "< 500 nM"
- line-notation: "Fc1ccc(-c2nn3cc(C(F)(F)F)ccc3c2-c2ccnc(NC3CC3)n2)cc1"
  IC50: "< 500 nM"
- line-notation: "Fc1ccc(-c2nn3cc(C(F)(F)F)ccc3c2-c2ccnc(Oc3ccccc3)n2)cc1"
  IC50: "< 500 nM"
- line-notation: "Fc1ccc(-c2nn3ccccc3c2-c2ccnc(NC3CC3)n2)cc1"
  IC50: "< 500 nM"
- line-notation: "CN1CCN(CCCNc2nccc(-c3c(-c4ccc(F)cc4)nn4cc(C(N)=O)ccc34)n2)CC1"
  IC50: "< 500 nM"
- line-notation: "N#Cc1ccc2c(-c3ccnc(NC4CC4)n3)c(-c3ccc(F)cc3)nn2c1"
  IC50: "< 500 nM"
- line-notation: "CSc1nccc(-c2c(-c3ccc(F)cc3)nn3ccccc23)n1"
  IC50: "< 500 nM"
- line-notation: "Fc1ccc(-c2nn3ccccc3c2-c2ccncn2)cc1"
  IC50: "500 to 5000 nM"
